Target: human CB2 receptor (Homo sapiens)
Sequence (P34972 whole entry): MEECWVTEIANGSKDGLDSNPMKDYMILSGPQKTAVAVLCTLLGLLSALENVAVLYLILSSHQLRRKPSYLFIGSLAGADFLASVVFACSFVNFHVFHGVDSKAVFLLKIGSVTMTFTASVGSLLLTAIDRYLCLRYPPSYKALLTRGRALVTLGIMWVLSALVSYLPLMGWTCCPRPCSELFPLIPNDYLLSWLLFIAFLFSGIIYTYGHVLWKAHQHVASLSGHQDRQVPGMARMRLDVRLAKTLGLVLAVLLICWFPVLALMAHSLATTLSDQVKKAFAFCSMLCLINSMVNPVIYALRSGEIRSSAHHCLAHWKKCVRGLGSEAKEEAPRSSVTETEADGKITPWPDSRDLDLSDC
Experiment: Efficacy and potency at the human CB2 receptor expressed in CHO cells (cAMP, forskolin)
pEC50: −log10 of the molar value.
endpoint.label: pEC50

{"columns": ["compound", "measured.value"],
 "data": [
  ["CCOC(=O)c1c(C)cc2nc(COC(=O)NCCO)n(-c3ccccc3S(=O)(=O)NC)c(=O)c2c1C [Compound 1a]", 8.46]
]}
